System: Mycoplasma S6
Assay: Minimum inhibitory concentration, Mycoplasma S6
Type: cell-based
# MIC annotations

compound: O=C(NN=Cc1c(C(=O)NCCO)[n+]([O-])c2ccccc2[n+]1[O-])OCCO [Example 28]
MIC / µg/mL: 100
//
compound: CNC(=O)c1c(C=NNC(=O)OC)[n+]([O-])c2ccccc2[n+]1[O-] [Example 13]
MIC / µg/mL: 100
//
compound: CNC(=O)c1c(C=NNC(=O)OCCO)[n+]([O-])c2ccccc2[n+]1[O-] [Example 25]
MIC / µg/mL: 100
//
compound: CC(C)NC(=O)c1c(C=NO)[n+]([O-])c2ccccc2[n+]1[O-] [Example 24]
MIC / µg/mL: 100
//
compound: CCNC(=O)c1c(C=NO)[n+]([O-])c2ccccc2[n+]1[O-] [Example 22]
MIC / µg/mL: 10
//
compound: COC(=O)NN=Cc1c(C(=O)N2CCOCC2)[n+]([O-])c2ccccc2[n+]1[O-] [Example 21]
MIC / µg/mL: 1
//
compound: COC(=O)NN=Cc1c(C(=O)NC2CCCCC2)[n+]([O-])c2ccccc2[n+]1[O-] [Example 16]
MIC / µg/mL: 100
//
compound: O=C(NCCO)c1c(C=NO)[n+]([O-])c2ccccc2[n+]1[O-] [Example 20]
MIC / µg/mL: 100

====

System: Clostridium botulinum
Test: microbe, parasite or virus in culture
Type: cell-based
Settings: read-out: minimum inhibitory concentration
# MIC annotations

chemical.structure: CNC(=O)c1c(C=NNC(=O)OC)[n+]([O-])c2ccccc2[n+]1[O-]
MIC: 100 µg/mL

chemical.structure: CCCNC(=O)c1c(C=NNC(=O)OC)[n+]([O-])c2ccccc2[n+]1[O-]
MIC: 100 µg/mL

chemical.structure: CCOC(=O)NN=Cc1c(C(=O)NCCO)[n+]([O-])c2ccccc2[n+]1[O-]
MIC: 100 µg/mL

chemical.structure: O=C(NCCO)c1c(C=NO)[n+]([O-])c2ccccc2[n+]1[O-]
MIC: 100 µg/mL

chemical.structure: COC(=O)NN=Cc1c(C(=O)N2CCCCC2)[n+]([O-])c2ccccc2[n+]1[O-]
MIC: 10 µg/mL

chemical.structure: O=C(NCCO)c1c(C=NNC(=O)N2CCOCC2)[n+]([O-])c2ccccc2[n+]1[O-]
MIC: 100 µg/mL

chemical.structure: CCCNC(=O)c1c(C=NO)[n+]([O-])c2ccccc2[n+]1[O-]
MIC: 1 µg/mL

chemical.structure: CCNC(=O)c1c(C=NO)[n+]([O-])c2ccccc2[n+]1[O-]
MIC: 1 µg/mL

chemical.structure: COC(=O)NN=Cc1c(C(=O)N2CCOCC2)[n+]([O-])c2ccccc2[n+]1[O-]
MIC: 1 µg/mL

chemical.structure: COC(=O)NN=Cc1c(C(=O)NCCO)[n+]([O-])c2ccccc2[n+]1[O-]
MIC: 100 µg/mL

chemical.structure: CCOC(=O)NN=Cc1c(C(=O)NC)[n+]([O-])c2ccccc2[n+]1[O-]
MIC: 1 µg/mL

chemical.structure: COC(=O)NN=Cc1c(C(=O)NC(C)C)[n+]([O-])c2ccccc2[n+]1[O-]
MIC: 100 µg/mL

chemical.structure: CC(C)NC(=O)c1c(C=NO)[n+]([O-])c2ccccc2[n+]1[O-]
MIC: 1 µg/mL

chemical.structure: O=C(NN=Cc1c(C(=O)NCCO)[n+]([O-])c2ccccc2[n+]1[O-])OCCO
MIC: 100 µg/mL

chemical.structure: COC(=O)NN=Cc1c(C(=O)N2CCCC2)[n+]([O-])c2ccccc2[n+]1[O-]
MIC: 10 µg/mL

chemical.structure: CCNC(=O)c1c(C=NNC(=O)OC)[n+]([O-])c2ccccc2[n+]1[O-]
MIC: 100 µg/mL

chemical.structure: CNC(=O)c1c(C=NNC(=O)OCCO)[n+]([O-])c2ccccc2[n+]1[O-]
MIC: 1 µg/mL

chemical.structure: CCN(CC)C(=O)c1c(C=NNC(=O)OC)[n+]([O-])c2ccccc2[n+]1[O-]
MIC: 10 µg/mL

chemical.structure: COC(=O)NN=Cc1c(C(=O)NC2CCCCC2)[n+]([O-])c2ccccc2[n+]1[O-]
MIC: 100 µg/mL

chemical.structure: CNC(=O)c1c(C=NO)[n+]([O-])c2ccccc2[n+]1[O-]
MIC: 100 µg/mL

====

Test system: Mycoplasma MS
Assay: Minimum inhibitory concentration, Mycoplasma MS
Format: cell-based

chemical.structure: CCNC(=O)c1c(C=NO)[n+]([O-])c2ccccc2[n+]1[O-]
MIC: 100 µg/mL

chemical.structure: CNC(=O)c1c(C=NNC(=O)OCCO)[n+]([O-])c2ccccc2[n+]1[O-]
MIC: 100 µg/mL

chemical.structure: COC(=O)NN=Cc1c(C(=O)N2CCCCC2)[n+]([O-])c2ccccc2[n+]1[O-]
MIC: 100 µg/mL

chemical.structure: CCOC(=O)NN=Cc1c(C(=O)NC)[n+]([O-])c2ccccc2[n+]1[O-]
MIC: 100 µg/mL

chemical.structure: COC(=O)NN=Cc1c(C(=O)N2CCOCC2)[n+]([O-])c2ccccc2[n+]1[O-]
MIC: 10 µg/mL

====

Record type: MIC measurement. Applies to: Bordetella bronchiseptica
readout: MIC (µg/mL)

compound: COC(=O)NN=Cc1c(C(=O)N2CCCCC2)[n+]([O-])c2ccccc2[n+]1[O-] [Example 10]
readout: MIC
unit.abbreviation: µg/mL
experimental.value: 100

compound: CCOC(=O)NN=Cc1c(C(=O)NCCO)[n+]([O-])c2ccccc2[n+]1[O-] [Example 27]
readout: MIC
unit.abbreviation: µg/mL
experimental.value: 100

compound: COC(=O)NN=Cc1c(C(=O)NCCO)[n+]([O-])c2ccccc2[n+]1[O-] [Example 14]
readout: MIC
unit.abbreviation: µg/mL
experimental.value: 100

compound: CCN(CC)C(=O)c1c(C=NNC(=O)OC)[n+]([O-])c2ccccc2[n+]1[O-] [Example 11]
readout: MIC
unit.abbreviation: µg/mL
experimental.value: 100

compound: CNC(=O)c1c(C=NNC(=O)OCCO)[n+]([O-])c2ccccc2[n+]1[O-] [Example 25]
readout: MIC
unit.abbreviation: µg/mL
experimental.value: 100

compound: CCOC(=O)NN=Cc1c(C(=O)NC)[n+]([O-])c2ccccc2[n+]1[O-] [Example 26]
readout: MIC
unit.abbreviation: µg/mL
experimental.value: 100

compound: CCCNC(=O)c1c(C=NO)[n+]([O-])c2ccccc2[n+]1[O-] [Example 23]
readout: MIC
unit.abbreviation: µg/mL
experimental.value: 100

compound: CCCNC(=O)c1c(C=NNC(=O)OC)[n+]([O-])c2ccccc2[n+]1[O-] [Example 15]
readout: MIC
unit.abbreviation: µg/mL
experimental.value: 100

compound: COC(=O)NN=Cc1c(C(=O)NC2CCCCC2)[n+]([O-])c2ccccc2[n+]1[O-] [Example 16]
readout: MIC
unit.abbreviation: µg/mL
experimental.value: 100

compound: O=C(NCCO)c1c(C=NNC(=O)N2CCOCC2)[n+]([O-])c2ccccc2[n+]1[O-] [Example 29]
readout: MIC
unit.abbreviation: µg/mL
experimental.value: 100

compound: CCNC(=O)c1c(C=NNC(=O)OC)[n+]([O-])c2ccccc2[n+]1[O-] [Example 18]
readout: MIC
unit.abbreviation: µg/mL
experimental.value: 100

compound: COC(=O)NN=Cc1c(C(=O)N2CCOCC2)[n+]([O-])c2ccccc2[n+]1[O-] [Example 21]
readout: MIC
unit.abbreviation: µg/mL
experimental.value: 100

compound: O=C(NN=Cc1c(C(=O)NCCO)[n+]([O-])c2ccccc2[n+]1[O-])OCCO [Example 28]
readout: MIC
unit.abbreviation: µg/mL
experimental.value: 100

compound: CC(C)NC(=O)c1c(C=NO)[n+]([O-])c2ccccc2[n+]1[O-] [Example 24]
readout: MIC
unit.abbreviation: µg/mL
experimental.value: 100

compound: COC(=O)NN=Cc1c(C(=O)N2CCCC2)[n+]([O-])c2ccccc2[n+]1[O-] [Example 12]
readout: MIC
unit.abbreviation: µg/mL
experimental.value: 100

compound: O=C(NCCO)c1c(C=NO)[n+]([O-])c2ccccc2[n+]1[O-] [Example 20]
readout: MIC
unit.abbreviation: µg/mL
experimental.value: 100

compound: CNC(=O)c1c(C=NNC(=O)OC)[n+]([O-])c2ccccc2[n+]1[O-] [Example 13]
readout: MIC
unit.abbreviation: µg/mL
experimental.value: 100

compound: CNC(=O)c1c(C=NO)[n+]([O-])c2ccccc2[n+]1[O-] [Example 19]
readout: MIC
unit.abbreviation: µg/mL
experimental.value: 100

compound: COC(=O)NN=Cc1c(C(=O)NC(C)C)[n+]([O-])c2ccccc2[n+]1[O-] [Example 17]
readout: MIC
unit.abbreviation: µg/mL
experimental.value: 100

compound: CCNC(=O)c1c(C=NO)[n+]([O-])c2ccccc2[n+]1[O-] [Example 22]
readout: MIC
unit.abbreviation: µg/mL
experimental.value: 100

Each recorded value in this set is attributed to patent US3957987A.
